Hey, just so you know, these numbers are from the Biogen ADME set (Fang et al. 2023).

Labels assigned by MDR1-MDCK efflux ratio range: label 0: < 0.9; label 1: ≥ 0.9 and < 5; label 2: ≥ 5

Use the examples below as a reference point.
Cc1nc(-c2ccccc2)nc(O)c1C: label 0
Cc1cc(C)cc(C(=O)Nc2nn(C(C)(C)C)cc2C#N)c1: label 1
COc1cccc(Oc2ccc(NC(=O)CN3CCOCC3)cn2)c1: label 1

Task: Into which category would you place "COc1ccccc1-n1cc2c(c1-c1ccccc1Br)c(=O)n(C)c(=O)n2C" ?
Output: label 1

Task: Assign a bin to "Cc1ncsc1C(=O)N1C[C@@H]2CCCN(C(=O)c3scnc3C)[C@@H]2C1"
Output: label 2

Task: State the band of "Cc1ccccc1OCCCNc1cc(Cn2c(C)nc3ccccc32)nc(N)n1"
Output: label 2

Task: Looking at "O=C(Nc1ccc2c3c(cccc13)CC2)c1ccc(-n2cncn2)cc1" , which class would you pick?
Output: label 0

Task: Which MDR1-MDCK efflux ratio band matches "Cn1c(C(=O)N2CCN(CCc3ccccc3)C(=O)C2)cc(=O)n(C)c1=O" ?
Output: label 2

Task: Assign a category based on measured MDR1-MDCK efflux ratio for "O=c1c(=O)n(-c2ccc(F)c(F)c2)ccn1Cc1ccccc1Cl" and give only the class name.
Output: label 0

Task: Lab log: "Cc1noc2ncnc(N3CCCN(C(=O)C4CC4)CC3)c12" — assign MDR1-MDCK efflux ratio category
Output: label 2

Task: Bin this entry: "CCOc1cccc(NS(C)(=O)=O)n1"
Output: label 1

----------
Quantity Name: intrinsic clearance, rat liver microsomes (mL/min/kg)
Provide the reading as a plain figure in mL/min/kg.

A selection of reference data follows.
Cc1csc(CCNc2ncccc2C#N)n1: 876
CC(c1ccccc1)N1CC(C(=O)N2CCC(n3c(=O)[nH]c4ccccc43)CC2)CC1=O (stereo unspecified): 454
CN(c1ccccc1N)S(C)(=O)=O: 24.1
O=C(c1ccccc1F)N1CCC[C@@H]1Cn1nnn(-c2cccs2)c1=O: 1240
N[C@@H]1CCCN(c2c(/C=C3\SC(=O)NC3=O)cccc2-c2ccccc2)C1: 25.9

Task: Please look up its intrinsic clearance, rat liver microsomes: "CC(C)Cc1nn(C)c(=O)c2c(SCCCO)n(Cc3cccc4ccccc34)cc12"
Output: 2040

Task: Report intrinsic clearance, rat liver microsomes for "O=C1CCCN1CCCc1nc(Cc2c(Cl)cccc2Cl)n[nH]1" please.
Output: 381

Task: // intrinsic clearance, rat liver microsomes lookup, key: "COc1cccc(OCCCN)c1-c1cc(Nc2cnc(C#N)cn2)n[nH]1"
Output: 512

----------
Below is a list of entries, each paired with its recorded aqueous solubility value.
# Experimental Context: pH 6.8
Report only the number, with the unit µg/mL understood.

Some molecules with known aqueous solubility results, for comparison:
CC(C)c1csc(NC(=O)C2CCN(c3ncccn3)CC2)n1: 44.8
Cc1nnc(NCc2cccnc2)c2ccccc12: 29.9

Attention now turns to another entry.
Task: Returns the measured aqueous solubility for the input molecule. Input: "OCc1ccc(Cn2cc(-c3cc(F)ccc3-n3cccn3)nn2)cc1"
Output: 34.5

----------
Quantity Name: intrinsic clearance, rat liver microsomes

Examples with their reported intrinsic clearance, rat liver microsomes follow.
CN(Cc1ccc(-c2ccc(Br)cc2)o1)C(=O)c1cnn(C)c1: 8.06 L/h/kg
CC(C)[C@@H](C(=O)Nc1nc2ccccc2[nH]1)N1Cc2ccccc2C1=O: 15.7 L/h/kg
CCn1cc(C2CCN(Cc3ccc(C#N)cc3)CC2)cn1: 11.3 L/h/kg
O=C(CN1CCCC(c2cccc(-c3cccc(Cl)c3)n2)C1)N1CCCC1 (stereo not given): 25.1 L/h/kg
O=C(c1ccc(O)cc1)N1CCN(c2ncnc3c2CCC3)CC1: 10.7 L/h/kg

Task: For the compound shown here, "Cc1nnc(N2CC[C@H](O)C2)c(C#N)c1C" , give the reported intrinsic clearance, rat liver microsomes.
Output: ≤ 0.64 L/h/kg

Task: # query: intrinsic clearance, rat liver microsomes of entry "O=C(CN1CCCC1=O)N1CCc2nc3sccc3c(=O)n2CC1"
Output: ≤ 0.64 L/h/kg

Task: # query: intrinsic clearance, rat liver microsomes of entry "Cc1cc(-c2ccc(N)nc2)cc(C2CCN(C(=O)CCCc3ccc(F)c(C)c3)CC2)n1"
Output: 115 L/h/kg

Task: Name the reported intrinsic clearance, rat liver microsomes value associated with the compound "c1ccc(Cc2n[nH]c(CSc3ccccc3)n2)cc1"
Output: 79.3 L/h/kg

Task: Using the record for "Cc1nc2ccc(C(=O)NCCCc3ccc(F)cc3)cc2[nH]1" , report its intrinsic clearance, rat liver microsomes.
Output: 11.7 L/h/kg
